Numbers sourced from PubChem BioAssay.

Kindly supply the reported NADPH fluorescence slope values for the records listed here.
Target: Voltage-gated potassium channel subunit beta-2 (Rattus norvegicus) (UniProt P62483)
Sequence (P62483 whole entry, looked up): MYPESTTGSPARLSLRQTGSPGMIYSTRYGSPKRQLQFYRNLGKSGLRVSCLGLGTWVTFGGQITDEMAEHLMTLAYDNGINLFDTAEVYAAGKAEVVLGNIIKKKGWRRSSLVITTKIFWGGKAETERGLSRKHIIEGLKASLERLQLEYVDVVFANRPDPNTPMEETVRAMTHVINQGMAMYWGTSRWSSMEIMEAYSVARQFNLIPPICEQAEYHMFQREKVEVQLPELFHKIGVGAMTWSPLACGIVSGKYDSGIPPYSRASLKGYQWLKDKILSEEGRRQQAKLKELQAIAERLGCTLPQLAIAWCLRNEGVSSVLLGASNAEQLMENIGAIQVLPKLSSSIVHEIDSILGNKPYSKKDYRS
Experiment: KvBeta positive modulators, primary screen, biochemical, NADPH fluorescence (AID 623);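 also: fluorescence intensity change per second fitted from 20 to 320 s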
Conditions: Recombinant KvBeta, NADPH fluorescence decrease slope, 10 min; at 10 µM; stronger effect = lower value
Reply with just the number.

Problem: // query NADPH fluorescence slope value for entry Cc1cccc(-c2nc(CN3CCCC(C(=O)NC4CCCC4)C3)c(C)o2)c1 (stereo not drawn)
Result: -5.9e-06

Problem: Given C(=N\n1cnnc1)/c1ccccn1 , state its recorded NADPH fluorescence slope.
Result: -0.000114

Problem: Which measured NADPH fluorescence slope value corresponds to COC(=O)c1ccc(CN(C(C)=O)c2ccccc2)o1 ?
Result: -9.4e-05

Problem: So what does the record say about NADPH fluorescence slope for COc1ccc(/C(O)=C2\C(=O)C(=O)N(Cc3ccco3)C2c2cc(OC)ccc2OC)cc1 (stereo not drawn) ?
Result: -1.6e-05

Problem: Item CCOC(=O)C(C(=O)OCC)N(C#N)c1nc(SC)nc(N(C)C)n1 has what recorded NADPH fluorescence slope?
Result: -5e-05

Problem: NADPH fluorescence slope lookup needed for Cn1c(-c2ccc(F)cc2)cnc1SCC(=O)Nc1ccccc1N1CCOCC1 , thanks.
Result: -2.7e-05

Problem: Quick one: NADPH fluorescence slope of Cc1cc(=O)[nH]c(COc2ccccc2)n1 ?
Result: -2e-05

Problem: Sample O=C(Oc1cccnc1)c1ccco1 — what was its NADPH fluorescence slope?
Result: -4.3e-05

Problem: Requested read-out: NADPH fluorescence slope. Entry: CCCCN(C)C(=O)CS(=O)(=O)Cc1nc(-c2cccc(OC)c2)oc1C
Result: -3.7e-05

Problem: Fill in the blank: the reported NADPH fluorescence slope of O=C(NCc1ccccc1)C1C(=O)N(Cc2ccccc2)C(=O)C1C1(O)CCCC1 (stereo not drawn) is ____.
Result: -2.1e-05

Problem: What value of NADPH fluorescence slope has been recorded for this entry: C=CCOC(=O)COc1ccc2c(C)c(C)c(=O)oc2c1C
Result: -5.7e-06

Problem: Fill blank: measured NADPH fluorescence slope of the molecule Cc1cc(NS(=O)(=O)c2ccc(NC(=O)Nc3ccc4c(c3)OCO4)cc2)no1 is ____.
Result: -5.2e-05

Problem: Recorded NADPH fluorescence slope of Cc1csc(NC(=O)CSc2nnc(Cc3cccn3C)n2-c2ccc(F)cc2)n1 , please.
Result: 2e-05

Problem: Data request, read-out NADPH fluorescence slope, for Nc1ccc2oc(-c3cc(Br)ccc3Cl)nc2c1
Result: 8.2e-06

Problem: Query: NADPH fluorescence slope; subject: c1ccc2c(c1)CCN(c1ncnc3c1[nH]c1ccccc13)C2
Result: -1.5e-05

Problem: # lookup: NADPH fluorescence slope of Cn1c(NC(=O)c2cccc(Cn3cc(Cl)cn3)c2)nc2ccccc21
Result: -1.6e-05

Problem: NADPH fluorescence slope lookup needed for COc1cccc(C(=O)NC2=NCCS2)c1 , thanks.
Result: -3.2e-05

Problem: Which NADPH fluorescence slope value belongs to c1ccc(OCCCn2nnc(-c3cccnc3)n2)cc1 ?
Result: 4.3e-06

Problem: Could you tell me which NADPH fluorescence slope is on file for O=C(c1ccco1)N1CCN(C(=O)c2sccc2-c2ccccc2)CC1 ?
Result: 2.3e-06

Problem: Give its NADPH fluorescence slope value. Item: O=S(=O)(c1cccs1)N1CCN(C/C=C/c2ccccc2)CC1
Result: -4.5e-05

Problem: # NADPH fluorescence slope lookup, item O=C(Nc1ccccc1)c1cc(N2CCOCC2)nc2ccccc12
Result: -6.8e-05

Problem: Param item = CCOC(=O)c1c(NC(=O)COC(=O)c2c(C)noc2C)sc2c1CCC2 ; retrieve measured NADPH fluorescence slope.
Result: -1.1e-05

Problem: # query: NADPH fluorescence slope of entry Cn1c(=O)c2c(nc(NCCNC(=O)c3ccco3)n2Cc2ccccc2Cl)n(C)c1=O
Result: -2.6e-05

====

Assay: DUSP6 inhibitors restoring Erk phosphorylation by chemical complementation, primary imaging in DUSP6-transfected HeLa (AID 609)
Conditions: HeLa MKP-3 transfected, phospho-Erk imaging KS statistic; measured here: cell density z-score; at 10 µM; cells stimulated with TPA for 15 min
Assay Readout: z-score
Kindly provide the number alone.

Problem: Entry Cc1nc(NCCO)c(C#N)c2c1COC(C)(C)C2 : reported z-score = ?
Result: -0.0329

Problem: Which value of z-score has been reported for C=CCOc1ccc(/C(O)=C2/C(=O)C(=O)N(CCCN3CCOCC3)C2c2ccccc2)cc1 (configuration not stated) in the records?
Result: 0.832

Problem: Would you mind telling me what z-score value was observed for O=C(NCCN1CCOCC1)c1ccc(=O)oc1 ?
Result: 0.12

Problem: Quick one: z-score of CC(NC(=O)Nc1ncccn1)(C(F)(F)F)C(F)(F)F ?
Result: -2.34

Problem: Give the measured z-score of CN1C(=O)NC(c2ccccc2)C2=C1CN(Cc1ccccc1)C2=O (configuration not stated) .
Result: 0.502

Problem: Which value of z-score has been reported for CC(C)CN1C(=O)c2ccc(C(=O)Nc3ccccn3)cc2C1=O in the records?
Result: -1.42

Problem: Quick one: z-score of CC(C)(C)C1=Nn2c(nnc2C2CCCCC2)SC1 ?
Result: 0.781

Problem: z-score for O=C(O)C1CC(=O)N(Cc2cccs2)C1 (configuration not stated) ?
Result: 0.677

Problem: I am curious: what z-score value has been reported for O=C(c1ccc2c3c(cccc13)C(=O)N(O)C2=O)N1CCCCC1 ?
Result: 1.73

Problem: Which z-score value is on record for Cc1nnc2n(C3CCCCC3)c(=O)c3c4c(sc3n12)COC(C)(C)C4 ?
Result: -2.3

Problem: Item C=CCn1c(-c2ccc(OC)c(OC)c2)n[nH]c1=S has what recorded z-score?
Result: 0.455

Problem: I am curious: what z-score value has been reported for COC(=O)c1c(C)[nH]c(C(=O)OCc2ccc(F)cc2)c1C ?
Result: -0.559

====

Target: Voltage-gated potassium channel subunit beta-2 (Rattus norvegicus)
Assay: KvBeta enzyme negative modulators, primary screen, biochemical, NADPH fluorescence (AID 622);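 also: slope of raw intensity against log time taken from 70 to 1610 s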
Conditions: recombinant KvBeta, 4-cyanobenzaldehyde reduction, at 10 µM, stronger effect = higher value
Response field class: enum, chosen by comparing fluorescence slope against low bracket = under -0.5, middle bracket = from -0.5 up to -0.4, high bracket = -0.4 and over

Problem: Category of Cc1ccc(-n2nnnc2SCC(=O)Nc2c(C)n(C)n(-c3ccccc3)c2=O)cc1 , please.
Result: low bracket

Problem: Dear colleague, I would appreciate it if you could identify the bin for Cc1nc2ccccc2c2oc(C(=O)NCCCN3CCCC3=O)cc12 and reply at your convenience.
Result: low bracket

Problem: Assign a category based on measured fluorescence slope for Cc1nc(N2CCN(C(=O)c3ccc(Cl)cc3)CC2)c(C#N)c2c1COC(C)(C)C2 and give only the class name.
Result: high bracket

Problem: Note: place this compound into its band. Item: CCOCCCNC(=O)CC1Oc2ccc(C)cc2NC1=O (centres undefined)
Result: low bracket

Problem: Note: place this compound into its band. Item: CCc1nc2n[nH]c(N)c2c2c1CCCC2
Result: middle bracket

Problem: Which bin should I file CCCOc1ccc2ccccc2c1/C=N/n1cnnc1 under?
Result: high bracket

Problem: # classify by fluorescence slope band: CCCC(=O)C1=C(N(C)c2ccccc2)CC(C)(C)C(C(=O)OC)C1=O (centres undefined)
Result: middle bracket

Problem: State the class of the compound shown: CC1CCN(C(=O)CSc2nnc(-c3ccc(S(=O)(=O)N4CCOCC4)cc3)n2C)CC1
Result: low bracket

Problem: Entry O=C(COC(=O)C1CC1)c1c[nH]c2ccccc12 belongs to which category?
Result: low bracket

Problem: Sort into band: COc1ccccc1OCC(=O)N1CCN(c2ccccc2OC)CC1
Result: low bracket

Problem: Band for COc1ccc(-c2cc3n(n2)CCc2nc4ccccc4n2-3)cc1 ?
Result: middle bracket

Problem: Place this compound in its band: O=c1c2ccccc2nc(SCc2cccc(F)c2)n1Cc1ccco1
Result: high bracket

Problem: Sort CCOC(=O)CSc1nc(N)c(C(=O)Nc2ccc(N(C)C)cc2)s1 into one of the categories.
Result: middle bracket

Problem: Could you tell me which band Cc1cc(C(=O)Nc2cccnc2)no1 belongs to?
Result: high bracket

Problem: Hi there! Could you help me figure out the category for CCCNc1ncnc2c1cnn2-c1ccc(OC)cc1 please?
Result: high bracket

Problem: Record O=C(O)C1CCCN(S(=O)(=O)c2ccc(Cl)s2)C1 (centres undefined) — which class?
Result: low bracket

Problem: Place this compound in its band: Cc1cc(=O)oc2c(CN3CCC(C)CC3)c(O)c(Cl)cc12
Result: high bracket

Problem: Which of the defined bands does the recorded fluorescence slope of Cc1ccccc1NC(=O)CN1CCC(NC(=O)Nc2ccccc2)CC1 sit within?
Result: high bracket

Problem: Using the reported fluorescence slope, which band applies to CCOC(=O)c1ccc(NC(=O)CSCc2ccco2)cc1 ?
Result: middle bracket

Problem: In plain terms, what class is O=C1c2ccccc2C(=O)N1CC1c2ccccc2CCN1C(=O)N1CCOCC1 (centres undefined) ?
Result: middle bracket
